- TEST: PK after subcutaneous administration of solutions in rats
- Format: in vivo, Wistar Han rat
- TEST CONDITIONS: male, Wistar Han, rat, plasma, sc, 50 mg/kg, rat mean, n=3; 504 h; SC 50 mg/kg, 300 mg/mL in 15% water/85% PEG 300
MEASURED ENDPOINT: concentration at 504 h (nM)
Report the value in nM with no unit label.

Problem: Look up concentration at 504 h: CC(C)(C#Cc1ccc(-c2ccc(Cl)c3c(NS(C)(=O)=O)nn(CC(F)(F)F)c23)c([C@H](Cc2cc(F)cc(F)c2)NC(=O)Cn2nc(C(F)(F)F)c3c2C(F)(F)[C@@H]2C[C@H]32)n1)S(C)(=O)=O
Solution: 292

* * *

- TEST: PK after subcutaneous administration of solutions in dogs
- Format: in vivo, Beagle dog
- TEST CONDITIONS: beagle, dog, plasma, sc, 12 mg/kg, dog; SC 12 mg/kg; 150 mg/mL solution (w/w %: 27.92 water, 58.04 PEG 300, 13.47 Formula (Ia), 1.1 NaOH); mean ± SD, n=3
MEASURED ENDPOINT: Tmax (days)
Report the value in days with no unit label.

Problem: Look up Tmax: CC(C)(C#Cc1ccc(-c2ccc(Cl)c3c(NS(C)(=O)=O)nn(CC(F)(F)F)c23)c([C@H](Cc2cc(F)cc(F)c2)NC(=O)Cn2nc(C(F)(F)F)c3c2C(F)(F)[C@@H]2C[C@H]32)n1)S(C)(=O)=O [Formula (Ia)]
Solution: 16.3

* * *

- TEST: PK after subcutaneous administration of solutions in rats
- Type: in vivo, Wistar Han rat
- TEST CONDITIONS: male, Wistar Han, rat, plasma, sc, 50 mg/kg, rat mean, n=3; 24 h; SC 50 mg/kg, 300 mg/mL in 15% water/85% PEG 300
MEASURED ENDPOINT: concentration at 24 h (nM)
Report the value in nM with no unit label.

Problem: Look up concentration at 24 h: CC(C)(C#Cc1ccc(-c2ccc(Cl)c3c(NS(C)(=O)=O)nn(CC(F)(F)F)c23)c([C@H](Cc2cc(F)cc(F)c2)NC(=O)Cn2nc(C(F)(F)F)c3c2C(F)(F)[C@@H]2C[C@H]32)n1)S(C)(=O)=O [Formula (Ia)]
Solution: 48.2

* * *

- TEST: PK after subcutaneous administration of solutions in dogs
- Format: in vivo, Beagle dog
- TEST CONDITIONS: male, beagle, dog, plasma, sc, 12 mg/kg, dog #2; 1680 h; SC 12 mg/kg, 400 mg/mL in 15% water/85% PEG 300
MEASURED ENDPOINT: concentration at 1680 h (nM)
Report the value in nM with no unit label.

Problem: Look up concentration at 1680 h: CC(C)(C#Cc1ccc(-c2ccc(Cl)c3c(NS(C)(=O)=O)nn(CC(F)(F)F)c23)c([C@H](Cc2cc(F)cc(F)c2)NC(=O)Cn2nc(C(F)(F)F)c3c2C(F)(F)[C@@H]2C[C@H]32)n1)S(C)(=O)=O [Formula (Ia)]
Solution: 42.2

* * *

- TEST: PK after subcutaneous administration of solutions in rats
- Type: in vivo, Wistar Han rat
- TEST CONDITIONS: male, Wistar Han, rat, plasma, sc, 50 mg/kg, rat #2; 504 h; SC 50 mg/kg, 300 mg/mL in 15% water/85% PEG 300
MEASURED ENDPOINT: concentration at 504 h (µM)
Report the value in µM with no unit label.

Problem: Look up concentration at 504 h: CC(C)(C#Cc1ccc(-c2ccc(Cl)c3c(NS(C)(=O)=O)nn(CC(F)(F)F)c23)c([C@H](Cc2cc(F)cc(F)c2)NC(=O)Cn2nc(C(F)(F)F)c3c2C(F)(F)[C@@H]2C[C@H]32)n1)S(C)(=O)=O
Solution: 0.267
